GI50 for assorted compounds
- Test system: SN12C
- ASSAY SUMMARY: NCI tumour cell line growth inhibition, 48 h
Active and inactive are the calls of the source. No stated cut-off is given here; in the data, active = GI50 up to about 1.1 µM and inactive = higher.

Some compounds with recorded GI50:
CC1(C)/C(=N\Nc2ccc([N+](=O)[O-])cc2[N+](=O)[O-])C2CCC1C2 (stereo not drawn); > 100 µM (inactive)
CCOC(=O)/C(C#N)=C/c1ccc(SCc2ccco2)c([N+](=O)[O-])c1; > 100 µM (inactive)

Input C=C(C)[C@H]1[C@@H]2OC(=O)[C@H]1[C@]1(O)C[C@H]3OC34C(=O)O[C@H]2[C@@]41C.CC(C)(O)[C@H]1[C@@H]2OC(=O)[C@H]1[C@]1(O)C[C@H]3OC34C(=O)O[C@H]2[C@@]41C (stereo partly drawn) . Output GI50: > 100 µM (inactive)

###

GI50 for assorted molecules
- Test system: OVCAR-5
- ASSAY SUMMARY: NCI tumour cell line growth inhibition, 48 h
The source made the active and inactive calls. No stated cut-off is given here; in the data, active = GI50 up to about 1.1 µM and inactive = higher.

Some molecules with recorded GI50:
CCCCCC(=O)Nc1nc(O)c2[nH]cnc2n1; > 100 µM (inactive)
S=C1OC2C3C4CC5C3C(O1)C1C5C4C21 (centres undefined); > 100 µM (inactive)
COC1OC(C)/C(=N/O)C2OC(C)(C)OC12 (centres undefined); > 100 µM (inactive)

Input OC(Cc1cccc2ccccc12)CN1CCC(c2ccccc2)CC1 (centres undefined) . Output GI50: 13.7 µM (inactive)

Input "C#Cc1cccc(N2C(=O)CC(=P(c3ccccc3)(c3ccccc3)c3ccccc3)C2=O)c1" . Output GI50: 57 µM (inactive)

Input NC(CC1=CCC=CC1)C(=O)O (centres undefined) . Output GI50: > 100 µM (inactive)

###

- System: HOP-62
- ASSAY SUMMARY: NCI tumour cell line growth inhibition, 48 h
The source made the active and inactive calls. No stated cut-off is given here; in the data, active = GI50 up to about 1.1 µM and inactive = higher.
READOUT KIND: GI50

C=C(C)[C@H]1[C@@H]2OC(=O)[C@H]1[C@]1(O)C[C@H]3OC34C(=O)O[C@H]2[C@@]41C.CC(C)(O)[C@H]1[C@@H]2OC(=O)[C@H]1[C@]1(O)C[C@H]3OC34C(=O)O[C@H]2[C@@]41C (some centres undefined); > 100 µM (inactive)
COc1ccccc1NC(=O)C1=C(C)NC(C)=C(C(=O)Nc2ccccc2OC)C1c1ccccc1[N+](=O)[O-]; 33.2 µM (inactive)
CN(C)c1nc(N(C)C)nc(N(C)C)n1 [ALTRETAMINE]; 139 µM (inactive)
CCOP(=O)(OCC)C(C(=O)OC)C(=O)C(=O)Nc1cccc(O)c1 (centres undefined); > 100 µM (inactive)
O=C(N/N=C/c1ccccc1O)c1ccccc1Nc1ccccc1C(=O)N/N=C/c1ccccc1O; 0.432 µM (active)

Input CSc1ccn(C2CC(F)C(CO)O2)c(=O)n1 (centres undefined) . Output GI50: > 100 µM (inactive)

Input "CC(=O)CCC(=O)CC(O)(C(F)(F)F)C(F)(F)F" . Output GI50: 17.9 µM (inactive)

Input "Nc1nc(CCl)nc(Nc2ccccc2)n1" . Output GI50: 16.3 µM (inactive)

Input "Cc1cc(C(C)(C)C)c(OCCCN2CCOCC2)c(C(C)(C)C)c1" . Output GI50: 19.5 µM (inactive)

###

- System: OVCAR-3
- ASSAY SUMMARY: NCI tumour cell line growth inhibition, 48 h
The source made the active and inactive calls. No stated cut-off is given here; in the data, active = GI50 up to about 1.1 µM and inactive = higher.
GI50 for assorted compounds

CN(C)C(=N)/N=C(\N)Nc1cccc(Cl)c1; > 100 µM (inactive)

Input "Nc1nc(CCl)nc(Nc2ccccc2)n1" . Output GI50: 17.2 µM (inactive)

Input CC1Oc2c(c(O)cc3oc(=O)cc(-c4ccccc4)c23)C(=O)C1C (centres undefined) . Output GI50: > 100 µM (inactive)

Input "N#Cc1nc(NC(=O)c2ccccc2)sc1N" . Output GI50: > 10 µM (inactive)

Input COC(=O)C1=CC(=O)OC1(OO)c1ccc(Br)cc1 (centres undefined) . Output GI50: > 100 µM (inactive)

Input N#Cc1c(N)nc2c3c1NC(=O)C(C(N)=O)C3c1ccccc1O2 (centres undefined) . Output GI50: > 100 µM (inactive)

Input "COc1ccc2c3c1O[C@]1(C)C34CCN(C)C(C2)C42C=C[C@@]1(OC)c1c(O)ccc(O)c12" . Output GI50: > 100 µM (inactive)

Input "O=C1C=CC(=O)c2c1ccc1c3ccccc3n(CCCCCCCCCCCCn3c4ccccc4c4ccc5c(c43)C(=O)C=CC5=O)c21" . Output GI50: > 100 µM (inactive)

Input "C=CCc1cccc(/C=N\N/C(N)=N/O)c1O" . Output GI50: 2.26 µM (inactive)

Input COC(=O)c1ccc(C)cc1CC1Cc2ccc(C)cc2C1=O (centres undefined) . Output GI50: 6.17 µM (inactive)

Input "CN(C)c1ccc2c(c1)C(=O)N(OS(=O)(=O)c1ccc([N+](=O)[O-])cc1)C2=O" . Output GI50: > 10 µM (inactive)

Input "CC(=O)OCCc1cc2ccccc2oc1=O" . Output GI50: > 100 µM (inactive)

Input "Cc1ccc(S(=O)(=O)N2CCNCCN(S(=O)(=O)c3ccc(C)cc3)CCNCC2)cc1" . Output GI50: 14.2 µM (inactive)

Input "C#CCn1c(=O)ccn(/C(=C\C(=O)OCC)C(=O)OCC)c1=O" . Output GI50: 5.61 µM (inactive)

Input CCOC(=O)C1=C(C)N(Cc2ccccc2)C2(O)C(OC)CC(=O)C3C(=O)N(c4ccccc4)C(=O)C132 (centres undefined) . Output GI50: 7.41 µM (inactive)

Input CCCCCC(C/C=N/N(C)C)C(O)(C(F)(F)F)C(F)(F)F (centres undefined) . Output GI50: 9.31 µM (inactive)

Input "CN1CC[C@@]2(c3cccc(O)c3)CC(=O)/C(=C/c3ccc(Cl)c(Cl)c3)[C@H]1C2" . Output GI50: 2.23 µM (inactive)

###

- System: A549
- ASSAY SUMMARY: NCI tumour cell line growth inhibition, 48 h
Calls of active or inactive are those of the source. Cut-off read from the data, not from the text of the source: active = GI50 up to about 1.1 µM and inactive = higher.
READOUT KIND: GI50

Sc1nnc(NNc2ccccc2)n1Nc1ccccc1; 8.97 µM (inactive)
COc1ccc(/C=C/c2nsc(/C=C/c3ccc(OC)cc3)n2)cc1; > 100 µM (inactive)
COc1ccccc1NC(=O)C1=C(C)NC(C)=C(C(=O)Nc2ccccc2OC)C1c1ccccc1[N+](=O)[O-]; > 100 µM (inactive)

Input "O=[N+]([O-])c1ccc(C2=NN(c3ccccc3)C[N+](c3ccc(Br)cc3)=N2)cc1" . Output GI50: 82 µM (inactive)

Input "CC1(C)O[C@@H]([C@@H](O)[C@H](O)C2SCCCS2)[C@@H](CO)O1" . Output GI50: > 100 µM (inactive)

Input COc1cc([C@@H]2c3cc4c(cc3[C@H](OC3OC5COC(c6ccco6)OC5C(O)C3O)C3COC(=O)[C@@H]32)OCO4)cc(OC)c1OC (stereo not given in full) . Output GI50: 3.79 µM (inactive)

Input CSc1ccn(C2CC(F)C(CO)O2)c(=O)n1 (stereo not given) . Output GI50: > 100 µM (inactive)

Input "O=P1(c2ccccc2)Nc2ccccc2SSc2ccccc2N1" . Output GI50: 19.6 µM (inactive)

Input "CCOc1c2c(cc3c1C(=O)c1c(OC)cccc1C3=O)C=C(OC)CC2" . Output GI50: 13.5 µM (inactive)

Input "Cc1cc(O)c(C(C)C)cc1/N=C/c1ccccc1O" . Output GI50: 18.5 µM (inactive)

###

GI50 for assorted compounds
- Test system: OVCAR-5
- ASSAY SUMMARY: NCI tumour cell line growth inhibition, 48 h
Calls of active or inactive are those of the source. No stated cut-off is given here; in the data, active = GI50 up to about 1.1 µM and inactive = higher.

Some compounds with recorded GI50:
CN1C(=O)N(C)C2(O)c3ccccc3C(=O)C12O (stereo not given); > 100 µM (inactive)
CC(=O)O[C@H]1C(N(C)C(=O)c2ccccc2)CC[C@]2(C)C3CC[C@@]4(C)C(CC(O)[C@@H]4C(C)N(C)C)[C@@H]3CCC12 (stereo not given in full); > 100 µM (inactive)

Input "CCOC(=O)c1cc(-c2ccc(OC)c(OC)c2)c[nH]1" . Output GI50: > 10 µM (inactive)

Input Cc1ccc2nc3ccccc3c(C3C4C(=O)N(c5ccc(Br)cc5Cl)C(=O)C4ON3C(C(N)=O)c3ccccc3)c2c1 (stereo not given) . Output GI50: > 25 µM (inactive)

Input "COCOCCCCCO[Si](C)(C)C(C)(C)C" . Output GI50: 16.9 µM (inactive)

Input "COc1cc(Nc2cnc3cc(N)ccc3n2)cc(OC)c1OC" . Output GI50: > 100 µM (inactive)

Input "Cc1cc2c3ccccc3n(C)c2c2c1C(=O)C=CC2=O" . Output GI50: 21.1 µM (inactive)

Input "CC(C)(C)OC(=O)N(CCCCN(CCCNC(=O)C(F)(F)F)C(=O)OC(C)(C)C)CCCNC(=O)C(F)(F)F" . Output GI50: > 100 µM (inactive)

Input [O-][S+]1CSCS1 (stereo not given) . Output GI50: > 100 µM (inactive)

Input "Cc1cc2c(s1)C(=O)c1sccc1C2=O" . Output GI50: 1.86 µM (inactive)

These entries and their values trace back to ChEMBL document CHEMBL1201862.
